molecular target: T1, AFP158/HLA-A*02:01 complex (human); experiment: SPR; vs AS170036 VL1VH1;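 also: crude scFv captured on sensor chip, peptide–HLA complex flowed over at several concentrations, KD estimated from association and dissociation kinetic rates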
T1 construct: biotinylated on the BSP by BirA for ELISA and panning; also called biotinylated AFP158/HLA-A*02:01 complex; Bio-AFP158
Below, each of the binders is paired with its reported Affinity increase value.

Study these solved cases before continuing.
{"Binder": "AS170036 VL1VH1 HP58S (scFv) scFv: QSALTQPRSVSGSPGQSVTISCAGTSSDVGSENYVSWYQQHPGKAPKLMIYQVNKRASGVPDRFSGSKSGNTASLTISGLQAEDEADYYCASYRSSDHNIVFGGGTKLTVLGGGGSGGGGSGGGGSEVQLVESGGGLVQPGGSLRLSCAASGFTFSSYAMSWVRQAPGKGLEWVSTINSGTGSSYYADSVKGRFTISRDNSKNTLYLQMNSLRAEDTAVYYCAKNFFDGSWFLGPPAMDYWGQGTLVTVSSHHHHHH", "Affinity increase": "0.3 fold"}
{"Binder": "AS170036 VL1VH1 HP58Q (scFv) scFv: QSALTQPRSVSGSPGQSVTISCAGTSSDVGSENYVSWYQQHPGKAPKLMIYQVNKRASGVPDRFSGSKSGNTASLTISGLQAEDEADYYCASYRSSDHNIVFGGGTKLTVLGGGGSGGGGSGGGGSEVQLVESGGGLVQPGGSLRLSCAASGFTFSSYAMSWVRQAPGKGLEWVSTINSGTGSQYYADSVKGRFTISRDNSKNTLYLQMNSLRAEDTAVYYCAKNFFDGSWFLGPPAMDYWGQGTLVTVSSHHHHHH", "Affinity increase": "0.5 fold"}

Input AS170036 VL1VH1 HP110V (scFv) scFv: QSALTQPRSVSGSPGQSVTISCAGTSSDVGSENYVSWYQQHPGKAPKLMIYQVNKRASGVPDRFSGSKSGNTASLTISGLQAEDEADYYCASYRSSDHNIVFGGGTKLTVLGGGGSGGGGSGGGGSEVQLVESGGGLVQPGGSLRLSCAASGFTFSSYAMSWVRQAPGKGLEWVSTINSGTGSPYYADSVKGRFTISRDNSKNTLYLQMNSLRAEDTAVYYCAKNFFDGSWFLGPVAMDYWGQGTLVTVSSHHHHHH . Output Affinity increase: 0.6 fold

Cited source for all entries: patent US20240279318A1
